# protocol details: Peptide hydrogel formation, vial-inverting method
# Assay type: physicochemical
# Set-up: key: 0: no hydrogel; 1: hydrogel
# condition set: peptide concentration 120 mM; vial-inverting method; 1 = hydrogel, 0 = no hydrogel
Where a SMILES comes first, the peptide text is derived from it.
Can you tell me GELATION for the items I'm about to list?
# output: bare number, no unit

Exercise: What GELATION value was documented for this compound, CC(C)[C@H](N)C(=O)N[C@@H](C)C(=O)N[C@@H](Cc1ccccc1)C(=O)N[C@@H](Cc1ccc(O)cc1)C(=O)O [VAFY] (H-VAFY-OH) ?
Solution: 1

Exercise: Reported GELATION, compound CC[C@H](C)[C@H](N)C(=O)N[C@@H](Cc1c[nH]c2ccccc12)C(=O)N1CCC[C@H]1C(=O)N[C@@H](Cc1c[nH]c2ccccc12)C(=O)O [IWPW] (H-IWPW-OH) : ____
Solution: 0

Exercise: Given N=C(N)NCCC[C@H](NC(=O)[C@H](CCCNC(=N)N)NC(=O)[C@H](CCCNC(=N)N)NC(=O)[C@@H](N)CCCNC(=N)N)C(=O)O [RRRR] (H-RRRR-OH) , state its recorded GELATION.
Solution: 0

Exercise: Which GELATION reading was recorded for the compound C[C@H](N)C(=O)N[C@@H](C)C(=O)N[C@@H](C)C(=O)N[C@@H](C)C(=O)O [AAAA] (H-AAAA-OH) ?
Solution: 0

Exercise: Can you share its GELATION? I mean this compound: CC[C@H](C)[C@H](NC(=O)[C@H](Cc1ccc(O)cc1)NC(=O)[C@@H]1CCCN1C(=O)[C@@H](N)Cc1ccc(O)cc1)C(=O)O [YPYI] (H-YPYI-OH)
Solution: 0
